Entries and their inhibition
Experiment: M. tuberculosis growth inhibition, HTS (AID 449762);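 also: bacterial growth assessed after seven days of incubation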
Details: M. tuberculosis H37Rv growth inhibition, 7H9 media; at 25 µM; active compounds read high
In all, about 330,000 compounds went through this assay and about 1,900 (0.58%) were called active. Another 4% or so got no clear call; they are omitted. Only a sample is shown. Potency and affinity values are given separately.
readoutType: inhibition (%)

molecule	number
COc1ccc(C2CC(c3ccc4ccccc4c3)=NN2C(=O)CN2C(=O)CCC2=O)cc1 (stereo not given)	37.5
COc1cccc(/C=N/NC(=S)NC2CC3CC2C2C=CCC32)c1O (stereo not given)	-6.6
CCOc1ccc(/C=N/NC(=S)NC2CC3CC2C2C=CCC32)cc1 (stereo not given)	7.16
COc1ccc(C2CC(c3ccc4ccccc4c3)=NN2C(=O)CSc2ncccn2)cc1 (stereo not given)	9.18
Cc1nn(Cc2ccc(Cl)cc2Cl)c(C)c1NC(=O)CCl	70.1

---

Test: M. tuberculosis growth inhibition, HTS (AID 449762);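 also: bacterial growth assessed after seven days of incubation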
Details: M. tuberculosis H37Rv growth inhibition, 7H9 media; at 25 µM; active compounds read high
Hit rate of the full screen: of about 330,000 compounds, about 1,900 (0.58%) were called active. Not shown: some 4% with an inconclusive outcome. Only a sample is shown. Potency and affinity values are given separately.
Reported inhibition is given for each of the following compounds.
readoutType: inhibition (%)

compound	valueUnits	number
Cc1ccsc1/C=C1/SC(N2CC(C)OC(C)C2)=NC1=O (configuration not stated)	%	68.3
COc1ccc(NC(=O)COC(=O)CCC2CCCCC2)cc1	%	8.09
CC1(C2CC2)NC(=O)N(CC(=O)N2CCN(c3ccccc3)CC2)C1=O (configuration not stated)	%	-0.6
Cc1ccc(-c2cc(C(=O)NC3=NCCS3)c3cc(Br)ccc3n2)o1	%	8.99
CC1CCCCC1NC(=O)c1ccc2c(c1)OCCO2 (configuration not stated)	%	8.58
Clc1ccc2c(c1)C(OC1CN3CCC1CC3)c1ccccc1CS2 (configuration not stated)	%	9.17
CCc1nc(Nc2ccccc2OC)c2oc3ccccc3c2n1	%	2.96
CN(C)N=Nc1ccc2nc[nH]c2c1	%	-2.52
Brc1ccc2c(c1)C(C1=NCCN1)c1ccccc1CS2 (configuration not stated)	%	0.75
CC1CCCCC1NC(=O)c1cc(=O)[nH]c2ccccc12 (configuration not stated)	%	-4.11
O=C(NNc1ncnc2ccccc12)c1cccc(Cl)c1	%	-0.01
CCOC(=O)c1cc(NC(=O)c2ccccc2)c(=O)n2c1oc1ccccc12	%	-3

---

Test: M. tuberculosis growth inhibition, HTS (AID 449762);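 also: bacterial growth assessed after seven days of incubation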
Conditions: M. tuberculosis H37Rv growth inhibition, 7H9 media; at 25 µM; active compounds read high
About 1,900 (0.58%) of roughly 330,000 compounds were called active. Roughly 4% stayed inconclusive and do not appear here. A selection follows. Potency and affinity values are given separately.
readoutType: inhibition (%)

compound	valueUnits	number
Oc1ccc(CNc2ccccc2)c2cccnc12	%	-3.76
Cc1cc(C)c(C(=O)N(C)CC2CCCN(CCc3ccccc3F)C2)o1 (stereo not drawn)	%	7.36
CCOC(=O)c1sc(SCC(=O)Nc2ccc(N(C)C)cc2)nc1N	%	1.23
Oc1ccc(CN2CCCc3ccccc32)c2cccnc12	%	-5.25
COc1ccc([C@@H]2CC=C(C(=O)O)[C@H](c3ccc(C(C)(C)C)cc3)N2S(=O)(=O)c2ccc(C)cc2)cc1OC	%	4.96
Oc1ccc(CNc2ccc(F)cc2)c2cccnc12	%	-1.78
CC(=O)Nc1ccc(NC(=O)CSc2ncnc3sc(C)c(C)c23)cc1	%	-0.3
COC(=O)[C@H](CC(C)C)NS(=O)(=O)N[C@@H](CC(C)C)C(=O)OC	%	-8.61
CCOC(=O)CSc1nnc(N)s1	%	-0.59
O=C(CSc1ccc(F)cc1)N1CCC(c2nc3ccccc3s2)CC1	%	3.87
COc1ccc(NC(=O)CS(=O)(=O)c2cn(CC(=O)N3CCOCC3)c3ccccc23)cc1OC	%	-16
O=C(Cn1c(CO)nc2ccccc21)NC1CCCCCC1	%	-4.47
Cc1ccnc(NC(=O)CCCc2c[nH]c3ccccc23)c1	%	-0.54
Cc1ccccc1NCc1ccc(O)c2ncccc12	%	2.36
Cc1cc(C(=O)Nc2sc3c(c2C#N)CCC(C(C)(C)C)C3)no1 (stereo not drawn)	%	-1.37
Cc1cc(NC(=O)Cn2nnc(-c3ccccc3NC(=O)c3ccccc3F)n2)no1	%	-4.78
CC(=O)c1cnc2c(-c3ccc(Cl)cc3)cnn2c1C	%	-5.22
CC1(C)C=Cc2c(ccc3c2OC[C@H](c2ccc(O)cc2O)C3)O1	%	9.89
O=C(O)C1CCN(c2ccc(S(=O)(=O)N3CCOCC3)cc2[N+](=O)[O-])CC1	%	-9.82
Oc1ccc(CN2CCN(Cc3ccccc3)CC2)c2cccnc12	%	14.4
O=C(CSc1c(Cl)cccc1Cl)N1CCC(c2nc3ccccc3s2)CC1	%	6.33
Cc1cccc(NCc2ccc(O)c3ncccc23)c1	%	14.1
CCC(NC(=O)c1cc(COc2c(F)cccc2F)on1)c1ccncc1 (stereo not drawn)	%	-2.33

---

Assay: M. tuberculosis growth inhibition, HTS (AID 449762);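 also: bacterial growth assessed after seven days of incubation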
Details: M. tuberculosis H37Rv growth inhibition, 7H9 media; at 25 µM; active compounds read high
Hit rate of the full screen: of about 330,000 compounds, about 1,900 (0.58%) were called active. Not shown: some 4% with an inconclusive outcome. Only a sample is shown. Entries with a potency or affinity are not part of this list.
Listed here are compounds together with their documented inhibition.
readoutType: inhibition (%)

compound	readoutType	number
COc1ccc(CCN(C)C(=O)c2ccc(COc3ccccc3)o2)cc1OC	inhibition	2.55
O=C(NC(=S)Nc1nc2c(s1)CCCC2)c1ccccc1	inhibition	2.45
COc1ccc(OC)c(NC(=O)CSc2nncc(=O)n2N)c1	inhibition	-3.14
O=C(Nc1ccc(N2CCN(C(=O)c3ccco3)CC2)cc1)c1ccco1	inhibition	-1.95
CCN(CC)CCn1c(SCC(=O)NCc2ccccc2)nc2c(sc3ccccc32)c1=O	inhibition	6
O=C(/C=C/c1ccccc1)N1CCN(c2ccccn2)CC1	inhibition	-12.8
O=C(Nc1ccc(N2CCN(C(=O)c3ccco3)CC2)cc1)c1ccccc1	inhibition	2.03
Cc1ncc(CN2CCC(n3nccc3NC(=O)c3ccccc3)CC2)s1	inhibition	-15.1
Cc1cc(Nc2cc(N3CCN(C)CC3)nc(Sc3ccc(NC(=O)C4CC4)cc3)n2)n[nH]1	inhibition	3.52
Cc1nc(-c2ccc(NC(=O)C3CC3)cc2)cs1	inhibition	37.4
CC(N)(C(=O)O)c1cccc(OCc2cccc(Cl)c2)c1 (stereo unspecified)	inhibition	-9.95

---

Assay: M. tuberculosis growth inhibition, HTS (AID 449762);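 also: bacterial growth assessed after seven days of incubation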
Conditions: M. tuberculosis H37Rv growth inhibition, 7H9 media; at 25 µM; active compounds read high
Screen size: about 330,000 compounds; about 1,900 (0.58%) were called active. Roughly 4% stayed inconclusive and do not appear here. The list is a sample of the results. Results with a measured potency or affinity are listed apart.
readoutType: inhibition (%)

compound	number
CCOCCN1CCN(c2c(C)c(C)nc3cc(-c4cc(OC)cc(OC)c4)nn23)CC1	-16.2
O=C1NN(c2cccc(Br)c2)C(=O)/C1=C\c1ccc(O)cc1	1.89
Cc1ccc(C(=O)N/C(=C\c2cccc([N+](=O)[O-])c2)C(=O)OCN2C(=O)c3ccccc3C2=O)cc1	9.25
COC(=O)c1ccc(OC(=O)c2cccs2)cc1	19.3
CCc1c(C)nc2cc(-c3cc(OC)cc(OC)c3)nn2c1N1CCN(CCN2CCOCC2)CC1	-1.99
CC(C)(C)OC(=O)N1CCC(CC2CC(c3ccncc3)=NO2)(C(=O)O)CC1 (stereo not given)	-6.97
O=C(NCCNC(=O)c1ccc(Cl)cc1Cl)c1ccco1	2.57
CCCCC[C@@H]1C=C(C(=O)O)[C@H](c2cccc(C)c2)N1S(=O)(=O)c1ccc(C)cc1	9.09
Nc1nn(S(=O)(=O)c2ccccc2)cc1-c1cccc([N+](=O)[O-])c1	1.89
Cc1ccc(C)c(S(=O)(=O)N2CCN(CC(=O)Nc3cc(C)on3)CC2)c1	1.82

---

Experiment: M. tuberculosis growth inhibition, HTS (AID 449762);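 also: bacterial growth assessed after seven days of incubation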
Conditions: M. tuberculosis H37Rv growth inhibition, 7H9 media; at 25 µM; active compounds read high
About 1,900 (0.58%) of roughly 330,000 compounds were called active. About 4% were inconclusive and are not listed. Only a sample is shown. Measured potencies and affinities stand elsewhere.
readoutType: inhibition

compound	result
C=CCNc1nc(C(=O)OCC(=O)c2ccc(F)cc2)cs1	-9.37% (inactive)
CCc1cccc2c(C(=O)COC(=O)c3ccc(O)cc3)c[nH]c12	-5.92% (inactive)
Cc1ccc(N2CC(C(=O)Nc3nccs3)CC2=O)cc1Cl (centres undefined)	10.9% (inactive)
CCc1cccc2c(=O)c(C(=O)NCCN3CCOCC3)c[nH]c12	-3.32% (inactive)
COc1ccc2c(Cl)c(-c3nnc(SCC(=O)c4ccccc4)n3C)sc2c1	5.59% (inactive)
CCSc1cc(N2CCOCC2)nc(-c2ccccc2)n1	8.27% (inactive)
CCN(CC)CCCC(C)NC(=O)c1ccc(C(F)(F)F)cc1 (centres undefined)	-7.51% (inactive)
COc1cc(-c2ccc3oc(-c4ccsc4)cc3c2)cc(OC)c1OC	0.64% (inactive)
Cc1cc(C(=O)N(C)CC2CCCN(CCc3ccc(F)cc3)C2)c(C)o1 (centres undefined)	-2.12% (inactive)
COc1ccc2c(c1)O/C(=C\c1ccco1)C2=O	-4.09% (inactive)
CCN(CC(=O)Nc1ccc(NC(C)=O)cc1)C(=O)c1ccccc1SCC(=O)N1CCCC1	6.02% (inactive)
CC12CCC(C(=O)Nc3cccc4ccccc34)(C1Br)C2(C)C (centres undefined)	5.17% (inactive)
CCCCn1c(=N)n(CC(=O)c2ccc(OC)cc2)c2ccccc21	2.91% (inactive)
CCc1cccc2c(C(=O)COC(=O)c3ccccc3)c[nH]c12	0.69% (inactive)
Cc1ccc(CNC(=O)c2ccc(CNc3c(N4CCCC4)c(=O)c3=O)cc2)cc1	-5.18% (inactive)
O=C(Nc1ccc(OCc2ccccc2)cc1)c1cccs1	-4.87% (inactive)
CC(C)CCn1nnnc1C(c1ccccc1)N1CCN(C)CC1 (centres undefined)	5.26% (inactive)
CCc1nnc(NC(=O)C2CC(=O)N(c3ccc(C)cc3)C2)s1 (centres undefined)	11.9% (inactive)
COc1ccc(C(=O)Nc2ccccc2C(=O)NCCN2CCOCC2)cc1OC	4.9% (inactive)
COc1ccc2c(Cl)c(-c3nnc(SCC(N)=O)n3C)sc2c1	-4.23% (inactive)
C=CCn1c(SCC(=O)c2c(N)n(C)c(=O)n(C)c2=O)nnc1-c1ccoc1C	2.92% (inactive)
NC(=O)CCN(Cc1ccccc1)S(=O)(=O)c1ccccc1	-1.39% (inactive)
COc1cccc(COC(=O)Nc2ccccc2F)c1	4.89% (inactive)
c1cncc(C2CC(c3cccs3)n3ncnc3N2)c1 (centres undefined)	-8.25% (inactive)
